tested on: HS 578T breast; test: NCI tumour cell line growth inhibition, 48 h; in the data active = GI50 below about 0.43 µM; inactive = the rest
Your reply should match one of these outcome classes. TRUE (active), FALSE (inactive)

Field: example entries. Status: answers known.
CN1C(=O)N(C)C2C1NN=c1s/c(=C\c3c[nH]c4ccccc34)c(=O)n12 (stereo not given): TRUE
O=C(CCc1ccco1)NC1CCN(CC2(c3ccc(Cl)cc3)CCC2)CC1: FALSE
COc1ccc(-c2nn(-c3ccc(NC(=O)Nc4ccc(Cl)c(Cl)c4)cc3)cc2-c2ccncc2)cc1Cl: FALSE
C=C(C)[C@@H]1CC[C@]2(C(=O)Nc3ccccn3)CC[C@]3(C)[C@H](CC[C@@H]4[C@@]5(C)CCCNC(C)(C)[C@@H]5CC[C@]43C)[C@@H]12: FALSE

Req: What classification did Cc1c2cnccc2c(C)c2c1c1cc(C(=O)O)ccc1n2C end up with in this test?
Resp: FALSE

----------
test system: BT-549 breast; assay: NCI tumour cell line growth inhibition, 48 h
readout: TGI (µM)
Give your result in µM as a bare value.

Req: # query: TGI of entry O=Nc1ccc(O)c2ncccc12
Resp: 23

Req: # query: TGI of entry O=C(CCc1ccco1)NC1CCN(CC2(c3ccc(Cl)cc3)CCC2)CC1
Resp: 29.6

Req: # query: TGI of entry O=S(=O)(CC#CCCCOCC#Cc1ccccc1C#CCS(=O)(=O)c1ccccc1)c1ccccc1
Resp: 34.8

----------
system: UACC-62 melanoma; test: NCI tumour cell line growth inhibition, 48 h
readout: TGI

Observe how each entry below is paired with its result.
Clc1ccccc1C1N2CCCCC2[C@@H]2c3[nH]c4ccccc4c3CCN12 (stereo partly specified): 30.2 µM
CC(N)(Cc1c[nH]c2ccccc12)C(=O)O (stereo unspecified): > 2500 µM
COC(=O)CCCC(=O)NC1=C(Nc2ccccc2)C(=O)c2ccccc2C1=O: 11.9 µM

Req: # query: TGI of entry CN1CCC(C(=O)NNc2ccccc2)CC1
Resp: > 33.7 µM

Req: # query: TGI of entry c1cc2[nH]snc2c2cncc12
Resp: > 100 µM

Req: # query: TGI of entry CN(C)/N=C1\C=C2CC[C@H](O[Si](C)(C)C(C)(C)C)[C@@]2(C)CC1
Resp: 30.4 µM

Req: # query: TGI of entry CC(=O)/C(N=Nc1ccc(-n2c(C)nc3ccc(Br)cc3c2=O)cc1)=C(/C)O
Resp: > 100 µM

Req: # query: TGI of entry COc1cc(-c2cc(-c3nc4cc(Cl)c(Cl)cc4[nH]3)[nH]n2)cc(OC)c1OC
Resp: 4.31 µM

Req: # query: TGI of entry COc1ccc(S(=O)(=O)NC2=NCCN2C(=S)SN2CCn3c2nsc3=S)cc1OC
Resp: 38 µM

Req: # query: TGI of entry Cc1ccc(C(=O)OC(C)C)cc1N=NN(C)C
Resp: > 100 µM

Req: # query: TGI of entry CN(C)c1ccc(/C=C/c2ccnc3ccc4ccccc4c23)cc1
Resp: > 100 µM

----------
test system: SK-MEL-2 melanoma; test: NCI tumour cell line growth inhibition, 48 h; in the data active = GI50 below about 0.43 µM; inactive = the rest
Your reply should match one of these outcome classes. 1 for active, -1 for inactive

Field: example entries. Status: answers known.
COc1cccc2c1C(=O)c1c(O)c3c(c(O)c1C2=O)C[C@@](O)(C(=O)CO)C[C@@H]3OC1CC(OC(C)=O)C(OC(C)=O)C(C)O1 (stereo partly drawn): -1
O=C(Nc1ccc(Cl)cc1F)c1cc(F)ccc1O: -1
O=S(=O)(CC#CCCCOCC#Cc1ccccc1C#CCS(=O)(=O)c1ccccc1)c1ccccc1: -1
Cc1cc(O)c(C2=NN(c3ccc(S(N)(=O)=O)cc3)C(c3ccccc3O)C2)cc1Cl (stereo not drawn): -1

Req: What classification did CN(C)CCN1C(=O)c2cccc3c(N)ccc(c23)C1=O end up with in this test?
Resp: -1

----------
Each entry below carries its recorded TGI.
test system: OVCAR-3 ovarian; assay: NCI tumour cell line growth inhibition, 48 h
Give your result in µM as a bare value.

CC(C)=CCc1c(O)ccc2c1OC1c3ccc(O)c(CC=C(C)C)c3OCC21 (stereo unspecified): 27
Cc1cccc(Cl)c1NC(N)=S: 78.6

Proceeding to the next compound to report its TGI.
Req: # query: TGI of entry Cc1ccc(P(c2ccc(C)cc2)c2ccc(C)cc2)cc1
Resp: 29.5

----------
test system: NCI/ADR-RES ovarian; assay: NCI tumour cell line growth inhibition, 48 h
Each entry below carries its recorded TGI.

Cc1cc(C(=O)N[C@@H](CCC(=O)O)C(=O)O)sc1CC[C@@H]1CNc2nc(N)[nH]c(=O)c2C1: > 100 µM
CC(=O)OCC1OC(O[C@@H]2C[C@H]3C(C)(C)[C@H](OC(C)=O)CC[C@]3(C)[C@H]3CC[C@]4(C)C(=CC[C@H]4[C@@H](C)C[C@@H](O)[C@H](O)C(C)(C)O)[C@@]32C)C(O)C(O)C1O (some centres undefined): > 100 µM
CC(=O)c1cccc(Nc2c3ccccc3nc3occc23)c1: 6.47 µM
CCN1CCC2(CC1)NC(=O)c1c(c3ccc(Cl)c(Cl)c3n1C)C2C#N (centres undefined): 13.6 µM
Cc1cc(C)c(S(=O)(=O)N(CCCCCCN)OCCCN)c(C)c1: > 100 µM
CCOC(=O)CCSS(=O)(=O)C(F)(F)F: > 100 µM

Req: # query: TGI of entry COc1cc(/C=C2\CCCC3C2=Nc2ccccc2NC3c2cc(OC)c(OC)c(OC)c2)cc(OC)c1OC (centres undefined)
Resp: > 100 µM

Req: # query: TGI of entry [C-]#[O+].[C-]#[O+].[Ir].[O-]c1ccc2ccccc2c1N=Nc1ccccc1
Resp: 51.8 µM

Req: # query: TGI of entry Nc1ccc(OCC(O)N2C(=O)c3ccccc3C2=O)cc1 (centres undefined)
Resp: > 100 µM

----------
tested on: HOP-62 NSCLC; assay: NCI tumour cell line growth inhibition, 48 h
Each entry below carries its recorded TGI.

Cc1cc(Cl)ccc1NC(=O)C(=O)Cc1ccc([N+](=O)[O-])c([N+](=O)[O-])c1CC(=O)C(=O)Nc1ccc(Cl)cc1C: > 100 µM
CC(C)[C@H]1CO[C@@H]2O[C@H](C)CC(=O)N21: > 100 µM

Req: # query: TGI of entry Cc1ccc(-c2cn3c(nc4ccccc43)c(-c3ccccc3)n2)cc1
Resp: 43.7 µM

Req: # query: TGI of entry Nc1cc(S(=O)(=O)O)cc2cc(S(=O)(=O)O)c(N=Nc3ccc(-c4ccc(N=Nc5c(S(=O)(=O)O)cc6cc(S(=O)(=O)O)cc(N)c6c5O)cc4)cc3)c(O)c12
Resp: > 100 µM

Req: # query: TGI of entry COC(=O)/C(=N\N)C(C(=O)C(=O)Nc1cccc([N+](=O)[O-])c1)c1nc2ccc(C(=O)c3ccccc3)cc2[nH]c1=O (stereo not given)
Resp: > 100 µM

Req: # query: TGI of entry C/C1=N\NC(=O)c2ccccc2C(=O)N/N=C(\C)c2cccc1n2.O=[N+]([O-])[O-].[Zn+2]
Resp: > 100 µM

Req: # query: TGI of entry CCN(CC)CCOc1ccc(N2Cc3ccccc3C2=O)cc1
Resp: > 10 µM

----------
system: OVCAR-5 ovarian; assay: NCI tumour cell line growth inhibition, 48 h
readout: GI50

Observe how each entry below is paired with its result.
CN(C)CCN1C(=O)c2cccc3c(N)ccc(c23)C1=O: 15.1 µM
Cc1cc(Nc2cc(CN3CCOCC3)c3nc(C)c(Cc4ccc(Cl)cc4F)n3n2)n[nH]1: 1.8 µM

Req: Request - read-out GI50 | tested on OVCAR-5 ovarian | molecule CC(C)(C)CC(C)(C)N(CSc1ccc(Cl)cc1)CSc1ccc(Cl)cc1
Resp: 2.19 µM

Req: Request - read-out GI50 | tested on OVCAR-5 ovarian | molecule COc1cccc2c1nc1cccc(OC)c1[n+]2[O-]
Resp: 27.8 µM

Req: Request - read-out GI50 | tested on OVCAR-5 ovarian | molecule O=c1c2[nH]c3ccccc3c2nc2n1CCS2
Resp: > 100 µM

Req: Request - read-out GI50 | tested on OVCAR-5 ovarian | molecule COc1cc(-c2nc(-c3nnc(-c4ccc(F)c(Cl)c4)o3)c3ccccn23)cc(OC)c1OC
Resp: 4.57 µM

----------
tested on: COLO 205 colon; test: NCI tumour cell line growth inhibition, 48 h
readout: TGI (µM)
Give your result in µM as a bare value.

Observe how each entry below is paired with its result.
CCN1CCC2(CC1)NC(=O)c1c(c3ccc(Cl)c(Cl)c3n1C)C2C#N (stereo unspecified): 4.11
COc1ccc2c(c1)C(=O)c1c-2c(OCCN(C)C)nc2cc(OC)ccc12: 10.8
COc1cc(/C=C/C=C2\CCC/C(=C\C=C\c3ccc(O)c(OC)c3)C2=O)ccc1O: 71.5
COC1/C=C\OC2(C)Oc3c(C)c(O)c4c(O)c(c(/C=N\OCCCc5ccccc5)c(O)c4c3C2=O)NC(=O)/C(C)=C\C=C/C(C)C(O)C(C)C(O)C(C)C(OC(C)=O)C1C (stereo unspecified): 4.12
CN(C)CCNC(=O)c1cccc2ccc(-c3cccnc3)nc12: 13.6

Req: # query: TGI of entry COc1cccc(CCn2c(N)c(C(=O)O)c3ccc([N+](=O)[O-])cc3c2=O)c1
Resp: 45.9

Req: # query: TGI of entry [C-]#[O+].[C-]#[O+].[Ir].[O-]c1ccc2ccccc2c1N=Nc1ccccc1
Resp: 3.7

Req: # query: TGI of entry COc1ccc(S(=O)(=O)NC2=NCCN2C(=S)SN2CCn3c2nsc3=S)cc1OC
Resp: 29

Req: # query: TGI of entry CN1C(=O)N(C)C2C1NN=c1s/c(=C\c3c[nH]c4ccccc34)c(=O)n12 (stereo unspecified)
Resp: 0.564

Req: # query: TGI of entry Cc1cc(C)c(S(=O)(=O)N(CCCCCCN)OCCCN)c(C)c1
Resp: 32.3
